Data provenance: patent US10975114B2

Test system: THP1 cells (hSTING HAQ allele)
experimental protocol: THP1-Dual IRF-3 luciferase reporter assay without digitonin
Type: cell-based, human
study conditions: Homo sapiens, THP-1, 0.5 h, 30 min compound incubation, overnight readout of secreted luciferase
pEC50: −log10 of the molar value.
quantity name: pEC50

I. Nc1ncnc2c1ncn2[C@@H]1O[C@@H]2CO[P@@](=O)(S)O[C@@H]3[C@H](F)[C@@H](OC[P@@](=O)(S)O[C@H]2[C@H]1F)O[C@H]3n1cnc2c(N)ncnc21
II. Nc1ncnc2c1ncn2[C@@H]1O[C@@H]2CO[P@@](=O)(S)O[C@H]3[C@@H](F)[C@H](n4cnc5c(N)ncnc54)O[C@@H]3CO[P@@](=O)(S)O[C@H]2[C@H]1F
(Q) Hi team, can someone confirm which has the larger pEC50: I or II ? Thanks. Pick one and reply with its label.
(A) I
(I: 5.35, II: 4.81)

---

Please consider the recorded Kd for hSTING REF allele (Homo sapiens, UniProt Q86WV6) in what follows.
quantity name: Kd (nM)

A. Nc1ncnc2c1ncn2[C@@H]1O[C@@H]2CO[P@@](=O)(S)O[C@@H]3[C@H](F)[C@@H](OC[P@@](=O)(S)O[C@H]2[C@H]1F)O[C@H]3n1cnc2c(N)ncnc21
B. Nc1ncnc2c1ncn2[C@@H]1O[C@@H]2CO[P@@](=O)(S)O[C@H]3[C@@H](F)[C@H](n4cnc5c(N)ncnc54)O[C@@H]3CO[P@@](=O)(S)O[C@H]2[C@H]1F
(Q) Dear colleague, could you let me know whether A or B has the lower recorded Kd? Thanks. Pick one and reply with its label.
(A) A
(A: 333 nM, B: 591 nM)
